MEASUREMENT NAME: log10(intrinsic clearance, human liver microsomes) (log10 of the value in mL/min/kg)
Plainly stated, the numbers are log10 of intrinsic clearance, human liver microsomes given in mL/min/kg.

// log10(intrinsic clearance, human liver microsomes) lookup, compound = CN(Cc1nc2ccccc2n1C)c1ccnc(-c2ccccc2)n1 , result: 2.02

response.value for CCC(=O)N(C)c1ccccc1C(=O)O (field: log10(intrinsic clearance, human liver microsomes)) = 1.37

// log10(intrinsic clearance, human liver microsomes) lookup, compound = O=C(Nc1ccc(CN2CCCCC2)cc1)c1ccnc2[nH]cnc12 , result: 0.89

Just so you know, measured log10(intrinsic clearance, human liver microsomes) for CCOc1ccc(CNC(=O)Cn2ccc3cc(S(=O)(=O)N4CCCC4)ccc32)cc1 came out at 2.63

log10(intrinsic clearance, human liver microsomes) reading for Cc1cc(N(C)C)nc(N(C)Cc2csc(C)n2)n1 : 1.49

Notebook: N#Cc1ccc2ncnc(N[C@H]3CC[C@H](N4CCOCC4)CC3)c2c1 , log10(intrinsic clearance, human liver microsomes) read as 0.98

Field log10(intrinsic clearance, human liver microsomes) (entry Cc1ccc(NC(=O)CN2CCCC(c3nc4ccccc4o3)C2)cc1C (stereo not drawn) ) reads 2.33

Lookup result for O=S(=O)(Nc1cccc(-c2nc3ccccc3[nH]2)c1)c1ccc(Cl)cc1 ; measured log10(intrinsic clearance, human liver microsomes): 1.30

// log10(intrinsic clearance, human liver microsomes) value for O=c1cc2c(n[nH]1)-c1cnc(N3CCCC3)nc1CC2 : 0.82

Per the records, this compound ( COCCN(C)C(=O)c1ccc(-c2cccc(-c3noc(C)n3)c2)cc1 ) has log10(intrinsic clearance, human liver microsomes) equal to 1.06

get_value(item= CN1CCC(Cc2cccc(-c3nccs3)n2)C1 (stereo not drawn) , readout=log10(intrinsic clearance, human liver microsomes)) returns 1.63

Please fill in: log10(intrinsic clearance, human liver microsomes) reported for CCN1CCC(Nc2nc(C)cc(C)c2C#N)CC1 = 0.83

Reported log10(intrinsic clearance, human liver microsomes) ( CC(=O)c1ccc(-c2ccc(-c3nn[nH]n3)cc2)cc1 ) = 1.05

// recorded log10(intrinsic clearance, human liver microsomes) for CCCCn1nc(-c2ccc(C)o2)nc1CNC : 1.16

Recorded log10(intrinsic clearance, human liver microsomes) (compound Cn1cc(NC(=O)c2csc(Cc3ccccc3)n2)cn1 ): 1.37

Reported log10(intrinsic clearance, human liver microsomes) for C=CC(=O)Nc1cccc(Nc2nc(Nc3ccc(Oc4ccnc(C(=O)NC)c4)cc3)ncc2F)c1 was 1.82

Data point: CN(C)c1ccnc(C(=O)Nc2ccnn2-c2ccc(C#N)cc2)c1 ; log10(intrinsic clearance, human liver microsomes) = 1.88

Entry O=C(c1ccc2oc(CCCc3ccccc3)nc2c1)N1CCC(Oc2cccnc2)CC1 , log10(intrinsic clearance, human liver microsomes) reported as 2.83

Value of log10(intrinsic clearance, human liver microsomes) reported for the compound O=c1[nH]c2ccccc2n1C1CCN(CCOc2ccccc2)CC1 is 1.47

Measured log10(intrinsic clearance, human liver microsomes) of CCONC(=O)c1cnn(-c2cccc(Cl)c2)c1 : 1.54

Form field log10(intrinsic clearance, human liver microsomes), entry Cn1cc(-c2ccc(-c3cncc(Cl)c3N3CCC4(CCNC4=O)CC3)cc2)cn1 : 1.82

* * *

Give measured MDR1-MDCK efflux ratio for each item. Keep answers brief.

// MDR1-MDCK efflux ratio value for COc1nn(C)cc1C(=O)Nc1cccc(-c2cnc3n2CCC3)c1 : 9.53

Note to self: MDR1-MDCK efflux ratio recorded for CCCc1cc(CNC(=O)N2C[C@H]3C[C@@H](C2)c2cccc(=O)n2C3)on1 was 16.4

Lookup result for C=CC(=O)Nc1cccc(Oc2nc(Nc3ccc(N4CCN(C)CC4)cc3)nc3ccoc23)c1 ; measured MDR1-MDCK efflux ratio: 22

// field: MDR1-MDCK efflux ratio; key: COc1ccccc1CNC(=O)c1cnc(C2CCN(C(=O)C(C)(C)C)CC2)nc1C ; value = 9.52

// sample COc1cccc(O[C@H]2CCN(C(=O)c3cc(-c4ccc(C)cc4)on3)CC[C@@H]2O)c1 , its MDR1-MDCK efflux ratio was 0.721

Sample Cc1nc(-c2cccc(-c3ccc(C(=O)NC[C@@H]4CCCN4)cc3)c2)no1 ; MDR1-MDCK efflux ratio observed: 113

// recorded MDR1-MDCK efflux ratio for CCOc1ccc(-c2csc(N)n2)cc1 : 0.572

// COc1ccccc1C(=O)Nc1ccc2cc[nH]c2c1 : MDR1-MDCK efflux ratio value = 0.247

The reported MDR1-MDCK efflux ratio of the molecule COc1ccccc1CNc1cn[nH]c(=O)c1Cl was 1.3

Query Cc1nnc(NCC(=O)N2CCc3sccc3C2)c(C#N)c1C yields MDR1-MDCK efflux ratio of 1.31

Documented MDR1-MDCK efflux ratio of CC(=O)N1CCN(Cc2nc(O)cc(C(F)(F)F)n2)C(C)(C)C1 : 26.6

MDR1-MDCK efflux ratio reading for CN(C)c1ccc(-c2ccc(C(=O)NCCN3CCCC3=O)cc2)nn1 : 55.2

MDR1-MDCK efflux ratio for Cc1cnn(Cc2nnc(-c3ccccc3)s2)c1 is 0.554

Documented MDR1-MDCK efflux ratio of Cc1cc(C)c2ccc(C(=O)N3CCN(c4ncc[nH]c4=O)CC3)cc2n1 : 65.9

Form field MDR1-MDCK efflux ratio, entry CC(C)CCN1CCc2nc3cc(C4CC4)nn3c(O)c2C1 : 9.05

In plain terms, CCc1ccc2nc(C)cc(C(=O)N3CC(c4cccnc4)C3)c2c1 has a documented MDR1-MDCK efflux ratio of 11.2

CC(=O)N1CCN(c2ncc(-c3cc(C)no3)c([C@H]3CCCO3)n2)CC1 yielded MDR1-MDCK efflux ratio of 2.44

# MDR1-MDCK efflux ratio (molecule: Cc1csc(N(C(=O)c2ccc(-n3cncn3)c(F)c2)C2CC2)n1 ) is 0.63

For reference, reported MDR1-MDCK efflux ratio for Cc1cc(C)n(-c2ccc(CNC(=O)c3ccc4c(c3)CCO4)cn2)n1 stands at 0.769

Noted for Clc1cc2ncc(-n3ccnc3)nc2cc1Cl : its MDR1-MDCK efflux ratio reads 0.485

Briefly, MDR1-MDCK efflux ratio measured for CCn1c(SC)nnc1C1CCN(C)CC1 : 7.45

Measured MDR1-MDCK efflux ratio, CC[C@@H]1C(=O)N(C)c2cnc(-n3ccnc3-c3ccc(F)cc3)nc2N1c1ccn(C)n1 : 14.2

Query c1ccc2c(c1)nnn2Cc1ccc2c(c1)OCO2 yields MDR1-MDCK efflux ratio of 0.581

get_value(item= COc1ccc(CC2CN3CCN(C(=O)OCc4ccccc4)CC3CO2)cc1 (centres undefined) , readout=MDR1-MDCK efflux ratio) returns 0.797

MDR1-MDCK efflux ratio reading for COc1ccc(OCC(=O)N2CCN(C)CC2)cc1 : 0.763

Recorded MDR1-MDCK efflux ratio (molecule CN(CCC1CCCCC1)C(=O)c1ccon1 ): 0.597

In plain terms, CCOc1cccc(CNCCc2c[nH]c3ccccc23)c1 has a documented MDR1-MDCK efflux ratio of 0.628

Data point: Cc1cc(C)c(NC(=O)c2ccnc(OC3CCC3)c2)c(C)n1 ; MDR1-MDCK efflux ratio = 1.43

For this molecule ( Cc1ccc(NC(=O)c2c([O-])n(-c3ccc(C)cc3)n[n+]2Cc2ccccc2)cc1 ), measured MDR1-MDCK efflux ratio is 1.02

Given item CCCc1nc(N2CCc3ccccc3C2)ncc1C(=O)O , the value recorded as its MDR1-MDCK efflux ratio is 0.725

The molecule listed as Cc1nccc(-c2ccc(-c3noc(CN4CCOCC4)n3)cc2)n1 shows MDR1-MDCK efflux ratio equal to 0.677

Memo: CCc1ccccc1S(=O)(=O)NCCc1cn[nH]c1 , reported MDR1-MDCK efflux ratio: 2.65

Given item O=C1Nc2ccccc2O[C@H]2C[C@@H]1N(CC1CC1)C2 , the value recorded as its MDR1-MDCK efflux ratio is 0.851

Please fill in: MDR1-MDCK efflux ratio reported for Cc1cnn(C2CN(CC3(O)CCCCC3)C2)c1 = 0.488

Item: CN(Cc1cnc2ccccc2n1)S(=O)(=O)N1CCCC1 | MDR1-MDCK efflux ratio: 0.702

# MDR1-MDCK efflux ratio (molecule: O=c1c2cccnc2ncn1Cc1ccc2c(c1)CCCC2 ) is 0.68

# MDR1-MDCK efflux ratio (molecule: Cc1cc(F)ccc1-c1nc(CCn2c(C)nc3ccccc32)no1 ) is 0.696

The recorded MDR1-MDCK efflux ratio for Cc1cc(C)nc(N(C)CC(=O)NC2CC2)n1 is 0.884

// field: MDR1-MDCK efflux ratio; key: O=S(=O)(c1ccccc1Cl)N1CCCc2cnc(N3CCOCC3)nc21 ; value = 0.697

Cited source for all entries: the Biogen ADME set (Fang et al. 2023)
